Values from patent US20190161736A1

# System: clinical human primary cancer cells cultured from blood samples (CD45- cells)
# RUN_DESCRIPTION: Microwell-based CTC cluster assay, doxorubicin screening on clusters cultured from breast cancer patient blood samples
# EXPERIMENTAL_PARAMETERS: Homo sapiens, 72 h, read-out: IC50 value, sample CES053, Post treatment; 72 hrs exposure
PARAMETER_MEASURED: IC50 (nM)
Answers are plain numbers, in nM.

For COc1cccc2c1C(=O)c1c(O)c3c(c(O)c1C2=O)C[C@@](O)(C(=O)CO)C[C@@H]3O[C@H]1C[C@H](N)[C@H](O)[C@H](C)O1 [doxorubicin, Doxorubicin] the compound record lists IC50 as 340

====

# Tested on: clinical human primary cancer cells cultured from blood samples (CD45- cells)
# RUN_DESCRIPTION: Microwell-based CTC cluster assay, doxorubicin screening on clusters cultured from breast cancer patient blood samples
# EXPERIMENTAL_PARAMETERS: Homo sapiens, read-out: IC50 value, sample CTB039, Pre-treatment; 72 hrs exposure
PARAMETER_MEASURED: IC50 (nM)
Numbers only, in nM.

Quick note, IC50 for COc1cccc2c1C(=O)c1c(O)c3c(c(O)c1C2=O)C[C@@](O)(C(=O)CO)C[C@@H]3O[C@H]1C[C@H](N)[C@H](O)[C@H](C)O1 landed at 850

====

# Test system: clinical human primary cancer cells cultured from blood samples (CD45- cells)
# RUN_DESCRIPTION: Microwell-based CTC cluster assay, doxorubicin screening on clusters cultured from breast cancer patient blood samples
# EXPERIMENTAL_PARAMETERS: Homo sapiens, 72 h, read-out: IC50 value, sample CES021, Post treatment; 72 hrs exposure
PARAMETER_MEASURED: IC50

Measured IC50, COc1cccc2c1C(=O)c1c(O)c3c(c(O)c1C2=O)C[C@@](O)(C(=O)CO)C[C@@H]3O[C@H]1C[C@H](N)[C@H](O)[C@H](C)O1 [doxorubicin, Doxorubicin] : > 1000 nM
